# subjectOfTest: cloned human dopamine D3 receptors (Homo sapiens)
# Construct: expressed in transfected cells; membrane homogenate
# protocolSummary: [N-Methyl-3H]Spiroperidol binding to cloned human dopamine D3 receptors
# appliedConditions: read-out: D3 Ki
pKi: −log10 of the molar value.
Kind request: treat 7 as inclusive, so pKi at 7 or higher is Criterion met, anything lower is Criterion not met.

molecule	assignedClass
O=C(N[C@H]1CC[C@H](O)CC1)C1(CCN2CCC(c3noc4ccsc34)CC2)CC1	Criterion not met
Cn1nc(C2CCN(C[C@@H]3C[C@H]3C(=O)N[C@H]3CC[C@H](C)CC3)CC2)c2ccc(C(F)(F)F)cc21	Criterion not met
O=C([C@@H]1C[C@H]1CN1CCN(c2csc3cc(C(F)(F)F)ccc23)CC1)N1CCC[C@H](CN2CCCCC2)C1	Criterion met
O=C(NCCCc1ccn(S(=O)(=O)c2ccccc2)c1)C1CC1CN1CCC(c2noc3ccsc23)CC1 (racemic)	Criterion met

Continue with the next molecule.
Problem: Decide: pKi of O=C(NC1CCN(Cc2ccncc2)CC1)C1CC1CN1CCC(c2noc3ccsc23)CC1 (racemic) >= 7?
Solution: Criterion met

---

Each entry below carries its reported Ki.
# subjectOfTest: cloned human dopamine D3 receptors (Homo sapiens)
# Construct: expressed in transfected cells; membrane homogenate
# protocolSummary: [N-Methyl-3H]Spiroperidol binding to cloned human dopamine D3 receptors
# appliedConditions: read-out: D3 Ki
Form field: result (number plus unit)

Solved cases below.
compound	subjectOfTest	Ki
O=C(NCCc1ccccc1)C1(CCN2CCC(c3noc4ccsc34)CC2)CC1	cloned human dopamine D3 receptors (Homo sapiens)	91 nM
O=C([C@@H]1C[C@H]1CN1CCC(c2noc3ccsc23)CC1)N1CCC(CCN2CCCC2)CC1	cloned human dopamine D3 receptors (Homo sapiens)	41.5 nM

Problem: State the recorded Ki for this entry: `O=C([C@@H]1C[C@H]1CN1CCC(c2noc3ccsc23)CC1)N1CCC(c2nc3ccccc3s2)CC1`
Solution: 45.4 nM

Problem: State the recorded Ki for this entry: `O=C([C@@H]1C[C@H]1CN1CCC(c2noc3ccsc23)CC1)N1CCC(Oc2ccc(Cl)cc2)CC1`
Solution: 54 nM

Problem: State the recorded Ki for this entry: `Cn1nc(C2CCN(C[C@@H]3C[C@H]3C(=O)NCCCN3CCCCC3)CC2)c2sccc21`
Solution: 520 nM

Problem: State the recorded Ki for this entry: `CC(C)(C)c1ccc(CCNC(=O)[C@@H]2C[C@H]2CN2CCC(c3noc4ccsc34)CC2)cc1`
Solution: 95.3 nM

Problem: State the recorded Ki for this entry: Cn1nc(C2CCN(C[C@@H]3C[C@H]3C(=O)NCC3CCNCC3)CC2)c2cccc(C(F)(F)F)c21 [A002440433A]
Solution: 180 nM

---

# subjectOfTest: cloned human dopamine D3 receptors (Homo sapiens)
# Construct: expressed in transfected cells; membrane homogenate
# protocolSummary: [N-Methyl-3H]Spiroperidol binding to cloned human dopamine D3 receptors
# appliedConditions: read-out: D3 Ki
# Experimental: [N-Methyl-^3H]Spiroperidol Binding to Cloned Human Dopamine D3 Receptors […] A 200 μl sample membrane homogenate is added to 200 μl of 1% SDS, vortexed and allowed to stand for 5 min. Aliquots (25, 50 and 100 μl) of this mixture are assayed in duplicate following the standard Bio-Rad DC protein assay protocol (kit catalog number 500-0112) and using reagent S. Absorbance readings are made at 750 nm (note: the most accurate protein OD readings are between 0.1-0.5 units). […]
Each entry below carries its reported pKi.
Lab note — pKi values are minus log10 of concentrations in M.

Solved cases below.
molecule	pKi
COc1ccc2c(c1)c(N1CCN(C[C@@H]3C[C@H]3C(=O)NC3CCN(Cc4ccc(Cl)cc4)CC3)CC1)nn2C	9.48
O=C([C@@H]1C[C@H]1CN1CCC(c2noc3ccsc23)CC1)N1CCC(c2ccccc2)CC1	7.62
C[C@H]1CC[C@H](NC(=O)[C@@H]2C[C@H]2CN2CCN(c3nn(-c4ccc(C(F)(F)F)cc4)c4ccsc34)CC2)CC1	7.42

Problem: State the recorded pKi for this entry: `O=C(NCCN1CCNC1=O)[C@@H]1C[C@H]1CN1CCC(c2noc3ccsc23)CC1`
Solution: 6.84

Problem: State the recorded pKi for this entry: `Cc1nc(Cl)c(Cl)n1CCCNC(=O)[C@@H]1C[C@H]1CN1CCN(c2csc3cc(C(F)(F)F)ccc23)CC1`
Solution: 7.80

Problem: State the recorded pKi for this entry: Cc1ccc(CN2CCN(C(=O)C3CC3CN3CCC(c4noc5ccsc45)CC3)CC2)cc1 (racemic)
Solution: 7.66

Problem: State the recorded pKi for this entry: `O=C(NCCCN1CCCCCC1)[C@@H]1C[C@H]1CN1CCN(c2csc3cc(C(F)(F)F)ccc23)CC1`
Solution: 7.91

Problem: State the recorded pKi for this entry: O=C(NC1CCN(Cc2ccc(F)cc2F)CC1)C1CC1CN1CCC(c2noc3ccsc23)CC1 (racemic)
Solution: 8.56

Problem: State the recorded pKi for this entry: `O=C([C@@H]1C[C@H]1CN1CCC(c2noc3ccsc23)CC1)N1CCC(c2noc3ccsc23)CC1`
Solution: 7.46

Problem: State the recorded pKi for this entry: `O=C(NC1CCN(CC2CCCCC2)CC1)[C@@H]1C[C@H]1CN1CCN(c2nn(-c3ccc(OC(F)(F)F)cc3)c3ccsc23)CC1`
Solution: 8.15

Problem: State the recorded pKi for this entry: `Cc1ccc2[nH]cc(CCNC(=O)[C@@H]3C[C@H]3CN3CCC(c4noc5ccsc45)CC3)c2c1`
Solution: 8.27

Problem: State the recorded pKi for this entry: Cc1ccc(CN2CCC(NC(=O)C3CC3CN3CCC(c4noc5ccsc45)CC3)CC2)cc1 (racemic)
Solution: 8.32

Problem: State the recorded pKi for this entry: `O=C([C@@H]1C[C@H]1CN1CCC(c2noc3ccsc23)CC1)N1CCN(C/C=C/c2ccccc2)CC1`
Solution: 8.05

Problem: State the recorded pKi for this entry: Cc1cc(NC(=O)C2CC2CN2CCC(c3noc4ccsc34)CC2)sn1 (racemic)
Solution: 8.32

---

# subjectOfTest: cloned human dopamine D3 receptors (Homo sapiens, UniProt P35462)
# Construct: expressed in transfected cells; membrane homogenate
# Sequence (P35462 whole entry): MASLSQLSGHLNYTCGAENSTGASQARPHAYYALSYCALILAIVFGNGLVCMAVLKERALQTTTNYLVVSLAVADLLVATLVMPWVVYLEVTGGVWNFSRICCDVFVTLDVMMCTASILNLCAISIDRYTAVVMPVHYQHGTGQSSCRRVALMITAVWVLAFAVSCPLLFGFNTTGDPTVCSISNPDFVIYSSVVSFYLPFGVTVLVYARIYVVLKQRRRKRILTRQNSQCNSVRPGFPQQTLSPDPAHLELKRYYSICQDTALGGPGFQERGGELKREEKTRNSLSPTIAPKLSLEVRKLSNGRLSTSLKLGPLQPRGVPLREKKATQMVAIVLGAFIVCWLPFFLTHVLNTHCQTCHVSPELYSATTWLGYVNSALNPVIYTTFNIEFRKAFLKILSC
# protocolSummary: [N-Methyl-3H]Spiroperidol binding to cloned human dopamine D3 receptors
# appliedConditions: read-out: D3 Ki
# Protocol: [N-Methyl-^3H]Spiroperidol Binding to Cloned Human Dopamine D3 Receptors […] A 200 μl sample membrane homogenate is added to 200 μl of 1% SDS, vortexed and allowed to stand for 5 min. Aliquots (25, 50 and 100 μl) of this mixture are assayed in duplicate following the standard Bio-Rad DC protein assay protocol (kit catalog number 500-0112) and using reagent S. Absorbance readings are made at 750 nm (note: the most accurate protein OD readings are between 0.1-0.5 units). […]
measureName: Ki (nM)
Respond numerically; units are nM and should not be typed.

Solved cases below.
compound	unitOfMeasurement	Ki
CN(CCc1c[nH]c2ccccc12)C(=O)[C@@H]1C[C@H]1CN1CCC(c2noc3ccsc23)CC1	nM	18.1
O=C(NCCCn1ccnc1)[C@@H]1C[C@H]1CN1CCN(c2csc3cc(Cl)ccc23)CC1	nM	0.837
O=C([C@@H]1C[C@H]1CN1CCC(c2noc3ccsc23)CC1)N1CCCC(Cn2ccnc2)C1 (mixture of isomers)	nM	5.1

# ---- query compound ----
Problem: Look up Ki with cloned human dopamine D3 receptors (Homo sapiens, UniProt P35462) for this compound: `O=C(NCCCc1cccnc1)[C@@H]1C[C@H]1CN1CCC(c2noc3ccsc23)CC1`
Solution: 1.84

---

# subjectOfTest: cloned human dopamine D3 receptors (Homo sapiens, UniProt P35462)
# Construct: expressed in transfected cells; membrane homogenate
# protocolSummary: [N-Methyl-3H]Spiroperidol binding to cloned human dopamine D3 receptors
# appliedConditions: read-out: D3 Ki
pKi: −log10 of the molar value.
Kind request: treat 8 as inclusive, so pKi at 8 or higher is fulfilled, anything lower is not fulfilled.

Here are 6 molecules together with their reported answers.
molecule	assignedClass
O=C(NC1CCNCC1)[C@@H]1C[C@H]1CN1CCC(c2noc3ccsc23)CC1	fulfilled
O=C(NC1CCN(C(=O)c2ccc(Cl)s2)CC1)C1CC1CN1CCC(c2noc3ccsc23)CC1 (racemic)	not fulfilled
O=C(NCCCN1CCCCC1)[C@@H]1C[C@H]1CN1CCN(c2csc3ncccc23)CC1	not fulfilled
O=C([C@@H]1C[C@H]1CN1CCC(c2noc3ccc(C(F)(F)F)cc23)CC1)N1CCC(Cn2ccnc2)CC1	fulfilled
COc1ccc2c(c1)c(N1CCN(C[C@@H]3C[C@H]3C(=O)N3CCCC(Cn4ccnc4)C3)CC1)nn2C (mixture of isomers)	fulfilled
COc1ccccc1CN1CCC(NC(=O)[C@@H]2C[C@H]2CN2CCN(c3csc4cc(C(F)(F)F)ccc34)CC2)CC1	fulfilled

Problem: Decide: pKi of `C[C@H]1CC[C@H](NC(=O)[C@@H]2C[C@H]2CN2CCN(c3nn(-c4ccccc4)c4ccsc34)CC2)CC1` >= 8?
Solution: fulfilled

Problem: Decide: pKi of O=C(NC1CCN(CC2CC2)CC1)C1CC1CN1CCC(c2noc3ccsc23)CC1 (racemic) >= 8?
Solution: fulfilled

Problem: Decide: pKi of O=C(OCc1ccccc1)N1CCN(C(=O)C2CC2CN2CCC(c3noc4ccsc34)CC2)CC1 (racemic) >= 8?
Solution: not fulfilled

Problem: Decide: pKi of `COc1c(F)ccc2c(C3CCN(CCC4(C(=O)NCCCn5ccnc5)CC4)CC3)noc12` >= 8?
Solution: not fulfilled

Problem: Decide: pKi of O=C(NCCc1cccc(C(F)(F)F)c1)C1CC1CN1CCC(c2noc3ccsc23)CC1 (racemic) >= 8?
Solution: not fulfilled

Problem: Decide: pKi of `Cn1nc(C2CCN(C[C@@H]3C[C@H]3C(=O)NCCCc3cccnc3)CC2)c2cccc(C(F)(F)F)c21` >= 8?
Solution: not fulfilled
